Ki by entry:
Target: Prostaglandin E2 receptor EP3 subtype (Homo sapiens, UniProt P43115)
Sequence (P43115 whole entry): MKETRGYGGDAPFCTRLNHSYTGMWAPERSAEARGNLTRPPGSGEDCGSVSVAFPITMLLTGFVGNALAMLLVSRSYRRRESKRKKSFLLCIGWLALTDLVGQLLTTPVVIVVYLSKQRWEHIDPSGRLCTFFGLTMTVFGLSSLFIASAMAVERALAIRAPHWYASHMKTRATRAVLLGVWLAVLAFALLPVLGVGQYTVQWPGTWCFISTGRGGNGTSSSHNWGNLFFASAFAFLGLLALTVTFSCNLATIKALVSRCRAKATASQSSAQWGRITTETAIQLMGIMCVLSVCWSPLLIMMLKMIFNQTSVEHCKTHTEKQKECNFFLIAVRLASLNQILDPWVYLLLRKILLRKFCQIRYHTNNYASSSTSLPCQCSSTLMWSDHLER
Assay: Antagonist activity against EP3 receptor by FLIPR assay
REPORTED_METRIC: Ki (nM)

[[record]]
cpd_smiles = "CC(C)(C)CCc1cn(-c2nc(C(=O)[O-])cs2)c2cc(Cl)ccc12.[Na+]"
assayed_target = "Prostaglandin E2 receptor EP3 subtype (Homo sapiens, UniProt P43115)"
measured_value = 398

[[record]]
cpd_smiles = "CC(C)Cc1cn(-c2cccc(C(=O)[O-])n2)c2cc(Cl)ccc12.[Na+]"
assayed_target = "Prostaglandin E2 receptor EP3 subtype (Homo sapiens, UniProt P43115)"
measured_value = 794

[[record]]
cpd_smiles = "CC(C)Cc1cn(-c2nc(C(=O)[O-])cs2)c2cc(Cl)ccc12.[Na+]"
assayed_target = "Prostaglandin E2 receptor EP3 subtype (Homo sapiens, UniProt P43115)"
measured_value = 316

[[record]]
cpd_smiles = "CC(C)Cc1cn(-c2ccc(C(=O)[O-])o2)c2cc(Cl)ccc12.[Na+]"
assayed_target = "Prostaglandin E2 receptor EP3 subtype (Homo sapiens, UniProt P43115)"
measured_value = 501

[[record]]
cpd_smiles = "CC(C)Cc1cn(-c2nc(C(=O)O)cs2)c2cc(Br)ccc12"
assayed_target = "Prostaglandin E2 receptor EP3 subtype (Homo sapiens, UniProt P43115)"
measured_value = 398

[[record]]
cpd_smiles = "CC(C)Cc1cn(-c2nc(C(=O)O)cs2)c2cc(C(F)(F)F)ccc12"
assayed_target = "Prostaglandin E2 receptor EP3 subtype (Homo sapiens, UniProt P43115)"
measured_value = 501


====

test system: Rattus norvegicus; assay: Drug level in complete Freund's adjuvant-induced hypersensitivity rat blood at 10 mg/kg, po; type: ADME, organism-based; parameters: dose 10 mg/kg, route oral; details: in vivo, read-out: Drug uptake
REPORTED_METRIC: concentration (µM)

[[record]]
cpd_smiles = "CC(C)Cc1cn(-c2cccc(C(=O)[O-])n2)c2cc(Cl)ccc12.[Na+]"
assayed_target = "Rattus norvegicus"
reported_metric = "concentration"
measured_value = 6.04


====

test: Ratio of drug level in brain to blood in complete Freund's adjuvant-induced hypersensitivity rat; assay type: ADME, tissue-based
REPORTED_METRIC: Kp

[[record]]
cpd_smiles = "CC(C)Cc1cn(-c2cccc(C(=O)[O-])n2)c2cc(Cl)ccc12.[Na+]"
reported_metric = "Kp"
measured_value = 0.05


====

tested on: Liver; assay: Metabolic stability assessed as intrinsic clearance in rat liver microsome; type: ADME; conditions: microsomes
Use 10 mL/min/g as the dividing line for CL, with the line itself on the condition met side and lower values as condition not met.

[[record]]
cpd_smiles = "CCCc1cn(-c2nc(C(=O)[O-])cs2)c2cc(Cl)ccc12.[Na+]"
class_assignment = "condition met"

[[record]]
cpd_smiles = "CC(C)Cc1cn(-c2nc(C(=O)[O-])cs2)c2cc(Cl)ccc12.[Na+]"
class_assignment = "condition met"

[[record]]
cpd_smiles = "CC(C)Cc1cn(-c2ccc(C(=O)[O-])o2)c2cc(Cl)ccc12.[Na+]"
class_assignment = "condition met"

[[record]]
cpd_smiles = "CC(C)(C)Cc1cn(-c2nc(C(=O)[O-])cs2)c2cc(Cl)ccc12.[Na+]"
class_assignment = "condition not met"

[[record]]
cpd_smiles = "CC(C)(C)CCc1cn(-c2nc(C(=O)[O-])cs2)c2cc(Cl)ccc12.[Na+]"
class_assignment = "condition not met"

[[record]]
cpd_smiles = "CC(C)Cc1cn(-c2cccc(C(=O)[O-])n2)c2cc(Cl)ccc12.[Na+]"
class_assignment = "condition not met"


====

Molecular target: Thromboxane A2 receptor (Homo sapiens)
Sequence (P21731 whole entry): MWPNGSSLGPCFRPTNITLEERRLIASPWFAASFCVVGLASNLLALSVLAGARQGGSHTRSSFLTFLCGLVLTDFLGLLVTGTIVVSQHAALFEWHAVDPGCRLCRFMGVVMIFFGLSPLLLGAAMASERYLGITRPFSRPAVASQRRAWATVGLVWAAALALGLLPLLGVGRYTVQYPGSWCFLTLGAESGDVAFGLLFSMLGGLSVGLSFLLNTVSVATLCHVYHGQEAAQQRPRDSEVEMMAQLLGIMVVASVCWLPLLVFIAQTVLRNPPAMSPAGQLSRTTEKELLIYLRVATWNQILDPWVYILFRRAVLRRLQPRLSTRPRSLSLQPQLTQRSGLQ
Experiment: Antagonist activity against TP receptor by FLIPR assay
pKi: −log10 of the molar value.
pKi by entry:
REPORTED_METRIC: pKi

[[record]]
cpd_smiles = "CC(C)(C)CCc1cn(-c2nc(C(=O)[O-])cs2)c2cc(Cl)ccc12.[Na+]"
measured_value = 7.10

[[record]]
cpd_smiles = "CC(C)Cc1cn(-c2ccc(C(=O)[O-])o2)c2cc(Cl)ccc12.[Na+]"
measured_value = 6.40

[[record]]
cpd_smiles = "CC(C)Cc1cn(-c2nc(C(=O)O)cs2)c2cc(Br)ccc12"
measured_value = 7.30

[[record]]
cpd_smiles = "CC(C)Cc1cn(-c2nc(C(=O)[O-])cs2)c2cc(Cl)ccc12.[Na+]"
measured_value = 7.50


====

biological target: Prostaglandin E2 receptor EP1 subtype (Homo sapiens, UniProt P34995); assay: Antagonist activity against human EP1 receptor expressed in CHOK1 cells assessed as inhibition of PGE2-induced intracellular calcium mobilization by FLIPR assay; assay type: functional, cell-based, CHO-K1; details: read-out: Log Ki (converted)
Sequence (P34995 whole entry): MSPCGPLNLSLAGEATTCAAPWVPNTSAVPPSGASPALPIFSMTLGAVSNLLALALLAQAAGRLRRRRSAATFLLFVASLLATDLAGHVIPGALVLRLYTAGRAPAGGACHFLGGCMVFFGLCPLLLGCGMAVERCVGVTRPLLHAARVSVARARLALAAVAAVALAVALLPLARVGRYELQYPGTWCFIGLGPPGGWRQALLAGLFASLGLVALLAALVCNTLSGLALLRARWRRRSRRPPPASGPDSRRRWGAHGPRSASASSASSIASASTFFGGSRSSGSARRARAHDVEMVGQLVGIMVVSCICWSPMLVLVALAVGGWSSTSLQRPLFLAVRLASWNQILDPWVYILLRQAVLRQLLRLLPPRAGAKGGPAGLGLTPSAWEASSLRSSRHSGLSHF
REPORTED_METRIC: Ki (nM)

[[record]]
cpd_smiles = "CC(C)Cc1cn(-c2nc(C(=O)O)co2)c2cc(Cl)ccc12"
measured_value = 1

[[record]]
cpd_smiles = "CC(C)(C)CCc1cn(-c2nc(C(=O)[O-])cs2)c2cc(Cl)ccc12.[Na+]"
measured_value = 3.98

[[record]]
cpd_smiles = "CC(C)Cc1cn(-c2cccc(C(=O)[O-])n2)c2cc(Cl)ccc12.[Na+]"
measured_value = 20

[[record]]
cpd_smiles = "CC(C)Cc1cn(-c2ccc(C(=O)[O-])o2)c2cc(Cl)ccc12.[Na+]"
measured_value = 1.26

[[record]]
cpd_smiles = "CC(C)Cc1cn(-c2nc(C(=O)O)cs2)c2cc(C(F)(F)F)ccc12"
measured_value = 0.0631

[[record]]
cpd_smiles = "O=C(O)c1csc(-n2cc(Cc3ccccc3)c3ccc(Cl)cc32)n1"
measured_value = 63.1

[[record]]
cpd_smiles = "CC(C)Cc1cn(-c2nc(C(=O)O)cs2)c2ccccc12"
measured_value = 12.6

[[record]]
cpd_smiles = "CC(C)Cc1cn(-c2nc(C(=O)O)cs2)c2cc(Br)ccc12"
measured_value = 0.2


====

tested on: Rattus norvegicus; assay: Drug level in complete Freund's adjuvant-induced hypersensitivity rat blood at 3 mg/kg, po; type: ADME, organism-based; design: dose 3 mg/kg, route oral; conditions: in vivo, read-out: Drug uptake
REPORTED_METRIC: concentration (nM)

[[record]]
cpd_smiles = "CC(C)Cc1cn(-c2cccc(C(=O)[O-])n2)c2cc(Cl)ccc12.[Na+]"
assayed_target = "Rattus norvegicus"
measured_value = 1230


====

tested on: Liver; experiment: Metabolic stability assessed as intrinsic clearance in human liver microsome; assay type: ADME; settings: microsomes
REPORTED_METRIC: CL

[[record]]
cpd_smiles = "CC(C)Cc1cn(-c2cccc(C(=O)[O-])n2)c2cc(Cl)ccc12.[Na+]"
measured_value = "3.6 mL/min/g"

[[record]]
cpd_smiles = "CC(C)Cc1cn(-c2ccc(C(=O)[O-])o2)c2cc(Cl)ccc12.[Na+]"
measured_value = "5.4 mL/min/g"

[[record]]
cpd_smiles = "CC(C)Cc1cn(-c2nc(C(=O)[O-])cs2)c2cc(Cl)ccc12.[Na+]"
measured_value = "2.2 mL/min/g"

[[record]]
cpd_smiles = "CC(C)(C)CCc1cn(-c2nc(C(=O)[O-])cs2)c2cc(Cl)ccc12.[Na+]"
measured_value = "2.1 mL/min/g"

[[record]]
cpd_smiles = "CCCc1cn(-c2nc(C(=O)[O-])cs2)c2cc(Cl)ccc12.[Na+]"
measured_value = "1.3 mL/min/g"

[[record]]
cpd_smiles = "CC(C)(C)Cc1cn(-c2nc(C(=O)[O-])cs2)c2cc(Cl)ccc12.[Na+]"
measured_value = "2.7 mL/min/g"

